Record form. Attribute: activation. Fill in for each entry.
Biological target: Protein FosB (Mus musculus)
Test: activators of mouse delta FosB DNA binding, confirmation, biochemical, fluorescence polarization, TAMRA-CDK5 oligo, cherry-picked samples (AID 588690);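 note: higher polarization means more probe DNA bound by delta FosB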
Settings: purified delta FosB, at 24.9 µM, hits give high values, normalised: neutral wells 0, positive control 100
Among all 2,400 compounds or so, fewer than 10 were called active. Inconclusive results (about 1%) are left out. The list is a sample of the results.
Number in %, nothing else.

activation measured on `COc1ccc(/C=C/C(=O)OCC(=O)N2CCN(S(=O)(=O)c3ccc(C)cc3C)CC2)cc1OC` = -0.0445

Looking up `Cc1ccc(NC(=O)COc2ccc(/C=N\NC(=O)c3cccnc3)cc2)cc1C` , I found its activation recorded as 5.95

Given item `CC(=O)Nc1ccc(NC(=O)COc2ccccc2C(=O)Nc2cccc(Cl)c2Cl)cc1` , the value recorded as its activation is -3.31

// activation value for `CCOc1ccc2nc(N(CCN(C)C)C(=O)c3ccc4ccccc4c3)sc2c1` : -2.94

Note to self: activation recorded for `COc1ccc2nc(/N=C(\N)NC(=O)Nc3ccccc3)nc(C)c2c1` was -5.43

Lab note: `Nc1nc(COC(=O)CCC(=O)c2ccc(Cl)cc2)nc(Nc2ccccc2)n1` gave activation of 0.207

Reported activation for `COC(=O)c1sc2ncccc2c1OCc1ccc(Cl)cc1Cl` was -1.37

Please fill in: activation reported for COC(=O)c1nc2n(n1)C(c1ccc([N+](=O)[O-])cc1)C(C(=O)Nc1ccc(Cl)cc1)=C(C)N2 (stereo not given) = 2.9

For this compound ( `COc1cccc(OCc2cc(/C=N/NC(=O)c3nc(Cl)c(Cl)c(N)c3Cl)ccc2OC)c1` ), measured activation is 1.13

Just so you know, measured activation for `CCOc1ccccc1NC(=O)Cn1nnc(C(=O)NCc2cccs2)c1N` came out at 2.5

Lab note: measured activation of `NC(N)=Nc1nc2ccc(Br)cc2c(=O)[nH]1` was -0.0365

The measured activation associated with `Cn1cccc1/C=C1\SC(=O)N(CC(=O)Nc2ccc(F)cc2)C1=O` reads 0.105

Per the record, CC(Sc1nc(-c2ccccc2)cc(C(F)(F)F)n1)C(=O)Nc1ccc2c(c1)OCO2 (stereo not given) has activation of 0.405

The reported value for `O=C(Nc1ccc2ccccc2c1)/C(=C/c1cccc(Br)c1)NC(=O)c1ccco1` in terms of activation is 5.71

Item: `Cn1c(=O)oc2cc(S(=O)(=O)N3CCC(C(=O)Nc4ccc(OC(F)(F)F)cc4)CC3)ccc21` | activation: 3.32

Entry `COc1ccc(-c2cc3n(n2)CCc2nc4ccccc4n2-3)cc1` ; activation = 6.36

So for `O=C(COC(=O)c1ccc(S(=O)(=O)N2CCc3ccccc3C2)cc1)NC(=O)NCc1ccco1` , the logged activation turned out to be -0.464

Sure, the documented activation for `COc1ccc(-n2c(SCC(=O)Nc3sc4c(c3C#N)CCCC4)nnc2-c2ccc(O)cc2)cc1` is 2.22

Data point: `O=c1c2ccccc2oc2nc(C3CCCCC3)n(Cc3ccco3)c(=O)c12` ; activation = -1.5

activation reported for this compound `CCn1c(=O)c2cc(C(=O)Nc3cccc(C(C)=O)c3)sc2c2ccccc21` : 8.7

----------
Provide the recorded activation for the entries that follow.
Target: Protein FosB (Mus musculus) (UniProt P13346)
Sequence (P13346 whole entry, looked up): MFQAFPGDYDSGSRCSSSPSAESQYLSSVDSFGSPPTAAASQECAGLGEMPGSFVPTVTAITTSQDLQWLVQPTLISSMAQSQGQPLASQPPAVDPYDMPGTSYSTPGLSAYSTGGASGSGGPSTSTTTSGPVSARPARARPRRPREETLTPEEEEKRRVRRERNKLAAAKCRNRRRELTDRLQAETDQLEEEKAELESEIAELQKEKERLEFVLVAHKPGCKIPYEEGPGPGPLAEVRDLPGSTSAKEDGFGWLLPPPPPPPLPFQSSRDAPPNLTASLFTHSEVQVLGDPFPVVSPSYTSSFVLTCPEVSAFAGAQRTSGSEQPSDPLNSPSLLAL
Test: activators of mouse delta FosB DNA binding, confirmation, biochemical, fluorescence polarization, TAMRA-CDK5 oligo, cherry-picked samples (AID 588690);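 note: higher polarization means more probe DNA bound by delta FosB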
Conditions: purified delta FosB, at 24.9 µM, hits give high values, normalised: neutral wells 0, positive control 100
The whole screen tested about 2,400 compounds, of which fewer than 10 were called active. Not shown: some 1% with an inconclusive outcome. The list is a sample of the results.
Unit % implied. Number only.

Notebook: `COc1ccc(Cn2c(=S)[nH]c3cc(C(=O)N4CCCCC4)ccc3c2=O)cc1` , activation read as -2.01

// activation value for `COc1ccc(Br)cc1C(=O)NC(=S)Nc1cc(-c2nc3ccccc3[nH]2)ccc1C` : -0.0125

Record summary for `COc1cccc(CNC(=O)c2nnn(CC(=O)Nc3cc(C)ccc3C)c2N)c1` : reported activation = 0.657

activation for `COc1cccc(CNC(=O)c2nnn(CC(=O)Nc3cc(Cl)ccc3C)c2N)c1` is 5.89

The reported activation of the molecule `O=C(Nc1ccc(S(=O)(=O)N2CCc3ccccc3C2)cc1)c1ccccc1` was 6.54
